Values from paper PMC12030706

# assay remarks: Ex vivo biodistribution in PC-3 tumor-bearing mice
# test context: mouse, testes, Uptake in testes, 24 h post-injection
Numbered stars: 1 amine (or outer) side, 2 acyl side, 3 side chain; on linkers, the order of the positions; unused ones are H or OH. Square brackets hold non-standard residues; d marks the D form. Peptide text beside a SMILES is read from it. * marks the point of attachment. DOTA = O=C(O)CN1CCN(CC(=O)O)CCN(CC(=O)*)CCN(CC(=O)O)CC1; NMeH = CN[C@@H](Cc1c[nH]cn1)C(=O)O; X1 = O=C(CN1CCC(N[*:1])CC1)[*:2]; Tle = CC(C)(C)[C@H](N)C(=O)O; Thz = O=C(O)[C@@H]1CSCN1
outcome measure: tissue uptake at 24 h (%ID/g)
Answers are plain numbers, in %ID/g.

Quick request: tissue uptake at 24 h for each listed item, please.
1. CC(C)C[C@H](NC(=O)[C@H](Cc1cnc[nH]1)N(C)C(=O)CNC(=O)[C@@H](NC(=O)[C@H](C)NC(=O)[C@H](Cc1c[nH]c2ccccc12)NC(=O)[C@H](Cc1c[nH]cn1)NC(=O)[C@@H](Cc1ccccc1)NC(=O)CN1CCC(NC(=O)CN2CCN(CC(=O)O)CCN(CC(=O)O)CCN(CC(=O)O)CC2)CC1)C(C)(C)C)C(=O)N1CSC[C@H]1C(N)=O [[^177Lu]Lu-LW01142, metal not drawn] ({DOTA}-[X1][dF]HWA[Tle]G[NMeH]L[Thz]-NH2)
2. CC(C)C[C@@H](CN1CSC[C@H]1C(N)=O)NC(=O)[C@H](Cc1cnc[nH]1)NC(=O)CN(C)C(=O)[C@@H](NC(=O)[C@H](C)NC(=O)[C@H](Cc1c[nH]c2ccccc12)NC(=O)[C@H](CCC(N)=O)NC(=O)[C@@H](Cc1ccccc1)NC(=O)CN1CCC(NC(=O)CN2CCN(CC(=O)O)CCN(CC(=O)O)CCN(CC(=O)O)CC2)CC1)C(C)C [[^177Lu]Lu-TacsBOMB5, metal not drawn]
3. CC(C)C[C@H](NC(=O)[C@H](Cc1cnc[nH]1)N(C)C(=O)CNC(=O)[C@@H](NC(=O)[C@H](C)NC(=O)[C@H](Cc1c[nH]c2ccccc12)NC(=O)[C@H](CCC(N)=O)NC(=O)[C@@H](Cc1ccccc1)NC(=O)CN1CCC(NC(=O)CN2CCN(CC(=O)O)CCN(CC(=O)O)CCN(CC(=O)O)CC2)CC1)C(C)(C)C)C(=O)N1CSC[C@H]1C(N)=O [[^177Lu]Lu-LW01110, metal not drawn]

[0.03, 0.12, 0.02]

----------
# assay remarks: Ex vivo biodistribution in PC-3 tumor-bearing mice
# test context: male, NOD.Cg-Rag1^tm1Mom Il2rg^tm1Wjl/SzJ (NRG), mouse, tumor/kidney, total radioactivity, Tumor/kidney uptake ratio, 1 h blocked (co-injected with 100 µg [D-Phe6,Leu-NHEt13,des-Met14]Bombesin(6-14))
Numbered stars: 1 amine (or outer) side, 2 acyl side, 3 side chain; on linkers, the order of the positions; unused ones are H or OH. Square brackets hold non-standard residues; d marks the D form. Peptide text beside a SMILES is read from it. * marks the point of attachment. DOTA = O=C(O)CN1CCN(CC(=O)O)CCN(CC(=O)*)CCN(CC(=O)O)CC1; NMeH = CN[C@@H](Cc1c[nH]cn1)C(=O)O; X1 = O=C(CN1CCC(N[*:1])CC1)[*:2]; Tle = CC(C)(C)[C@H](N)C(=O)O; Thz = O=C(O)[C@@H]1CSCN1
Kindly state tissue to tissue ratio at 1 h for each of the entries shown.
Numbers only.

# compound, tissue to tissue ratio at 1 h
rows = [
    ("CC(C)C[C@H](NC(=O)[C@H](Cc1cnc[nH]1)N(C)C(=O)CNC(=O)[C@@H](NC(=O)[C@H](C)NC(=O)[C@H](Cc1c[nH]c2ccccc12)NC(=O)[C@H](CCC(N)=O)NC(=O)[C@@H](Cc1ccccc1)NC(=O)CN1CCC(NC(=O)CN2CCN(CC(=O)O)CCN(CC(=O)O)CCN(CC(=O)O)CC2)CC1)C(C)(C)C)C(=O)N1CSC[C@H]1C(N)=O [[^177Lu]Lu-LW01110, metal not drawn]", 0.85),
]

In the following, a different compound is considered.
Note tissue to tissue ratio at 1 h for the compound shown: CC(C)C[C@H](NC(=O)[C@H](Cc1cnc[nH]1)N(C)C(=O)CNC(=O)[C@@H](NC(=O)[C@H](C)NC(=O)[C@H](Cc1c[nH]c2ccccc12)NC(=O)[C@H](Cc1c[nH]cn1)NC(=O)[C@@H](Cc1ccccc1)NC(=O)CN1CCC(NC(=O)CN2CCN(CC(=O)O)CCN(CC(=O)O)CCN(CC(=O)O)CC2)CC1)C(C)(C)C)C(=O)N1CSC[C@H]1C(N)=O [[^177Lu]Lu-LW01142, metal not drawn] ({DOTA}-[X1][dF]HWA[Tle]G[NMeH]L[Thz]-NH2)
0.7

----------
# assay remarks: Ex vivo biodistribution in PC-3 tumor-bearing mice
# test context: male, NOD.Cg-Rag1^tm1Mom Il2rg^tm1Wjl/SzJ (NRG), mouse, tumor/blood, total radioactivity, Tumor/blood uptake ratio, 1 h blocked (co-injected with 100 µg [D-Phe6,Leu-NHEt13,des-Met14]Bombesin(6-14))
Numbered stars: 1 amine (or outer) side, 2 acyl side, 3 side chain; on linkers, the order of the positions; unused ones are H or OH. Square brackets hold non-standard residues; d marks the D form. Peptide text beside a SMILES is read from it. * marks the point of attachment. DOTA = O=C(O)CN1CCN(CC(=O)O)CCN(CC(=O)*)CCN(CC(=O)O)CC1; NMeH = CN[C@@H](Cc1c[nH]cn1)C(=O)O; X1 = O=C(CN1CCC(N[*:1])CC1)[*:2]; Tle = CC(C)(C)[C@H](N)C(=O)O; Thz = O=C(O)[C@@H]1CSCN1
outcome measure: tissue to tissue ratio at 1 h
Answers are plain numbers.

# molecule, tissue to tissue ratio at 1 h
records = [
    ("CC(C)C[C@H](NC(=O)[C@H](Cc1cnc[nH]1)N(C)C(=O)CNC(=O)[C@@H](NC(=O)[C@H](C)NC(=O)[C@H](Cc1c[nH]c2ccccc12)NC(=O)[C@H](Cc1c[nH]cn1)NC(=O)[C@@H](Cc1ccccc1)NC(=O)CN1CCC(NC(=O)CN2CCN(CC(=O)O)CCN(CC(=O)O)CCN(CC(=O)O)CC2)CC1)C(C)(C)C)C(=O)N1CSC[C@H]1C(N)=O [[^177Lu]Lu-LW01142, metal not drawn] ({DOTA}-[X1][dF]HWA[Tle]G[NMeH]L[Thz]-NH2)", 3.91),
]

Turning now to a further molecule:
Recall and state the measured tissue to tissue ratio at 1 h for CC(C)C[C@H](NC(=O)[C@H](Cc1cnc[nH]1)N(C)C(=O)CNC(=O)[C@@H](NC(=O)[C@H](C)NC(=O)[C@H](Cc1c[nH]c2ccccc12)NC(=O)[C@H](CCC(N)=O)NC(=O)[C@@H](Cc1ccccc1)NC(=O)CN1CCC(NC(=O)CN2CCN(CC(=O)O)CCN(CC(=O)O)CCN(CC(=O)O)CC2)CC1)C(C)(C)C)C(=O)N1CSC[C@H]1C(N)=O [[^177Lu]Lu-LW01110, metal not drawn] .
5.32

----------
# assay remarks: Ex vivo biodistribution in PC-3 tumor-bearing mice
# test context: male, NOD.Cg-Rag1^tm1Mom Il2rg^tm1Wjl/SzJ (NRG), mouse, tumor/muscle, total radioactivity, Tumor/muscle uptake ratio, 120 h post-injection
Numbered stars: 1 amine (or outer) side, 2 acyl side, 3 side chain; on linkers, the order of the positions; unused ones are H or OH. Square brackets hold non-standard residues; d marks the D form. Peptide text beside a SMILES is read from it. * marks the point of attachment. DOTA = O=C(O)CN1CCN(CC(=O)O)CCN(CC(=O)*)CCN(CC(=O)O)CC1; NMeH = CN[C@@H](Cc1c[nH]cn1)C(=O)O; X1 = O=C(CN1CCC(N[*:1])CC1)[*:2]; Tle = CC(C)(C)[C@H](N)C(=O)O; Thz = O=C(O)[C@@H]1CSCN1
outcome measure: tissue to tissue ratio at 120 h
One number for each entry.

# compound, tissue to tissue ratio at 120 h
records = [
    ("CC(C)C[C@H](NC(=O)[C@H](Cc1cnc[nH]1)N(C)C(=O)CNC(=O)[C@@H](NC(=O)[C@H](C)NC(=O)[C@H](Cc1c[nH]c2ccccc12)NC(=O)[C@H](CCC(N)=O)NC(=O)[C@@H](Cc1ccccc1)NC(=O)CN1CCC(NC(=O)CN2CCN(CC(=O)O)CCN(CC(=O)O)CCN(CC(=O)O)CC2)CC1)C(C)(C)C)C(=O)N1CSC[C@H]1C(N)=O [[^177Lu]Lu-LW01110, metal not drawn]", 776),
]

The record that follows has no tissue to tissue ratio at 120 h shown yet.
Specify measured tissue to tissue ratio at 120 h for CC(C)C[C@H](NC(=O)[C@H](Cc1cnc[nH]1)N(C)C(=O)CNC(=O)[C@@H](NC(=O)[C@H](C)NC(=O)[C@H](Cc1c[nH]c2ccccc12)NC(=O)[C@H](Cc1c[nH]cn1)NC(=O)[C@@H](Cc1ccccc1)NC(=O)CN1CCC(NC(=O)CN2CCN(CC(=O)O)CCN(CC(=O)O)CCN(CC(=O)O)CC2)CC1)C(C)(C)C)C(=O)N1CSC[C@H]1C(N)=O [[^177Lu]Lu-LW01142, metal not drawn] ({DOTA}-[X1][dF]HWA[Tle]G[NMeH]L[Thz]-NH2) .
588
